- Target of assay: pregnane X receptor (PXR) (Homo sapiens, UniProt O75469)
- Sequence (O75469 whole entry): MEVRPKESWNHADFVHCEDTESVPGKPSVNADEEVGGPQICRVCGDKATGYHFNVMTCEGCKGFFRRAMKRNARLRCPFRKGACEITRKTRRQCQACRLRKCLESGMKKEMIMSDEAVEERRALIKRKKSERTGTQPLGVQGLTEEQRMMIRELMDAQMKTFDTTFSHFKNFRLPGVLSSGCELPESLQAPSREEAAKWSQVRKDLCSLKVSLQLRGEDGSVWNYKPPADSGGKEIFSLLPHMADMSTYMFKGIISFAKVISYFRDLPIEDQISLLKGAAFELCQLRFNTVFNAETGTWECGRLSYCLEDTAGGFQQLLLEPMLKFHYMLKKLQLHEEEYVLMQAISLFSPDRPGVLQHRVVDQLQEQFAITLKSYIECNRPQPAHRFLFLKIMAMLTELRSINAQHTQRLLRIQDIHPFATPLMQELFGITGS
- Measurement setup: antagonist mode, RIF 10 μM, 24 h
Measured parameter: effect on rifampicin-inducible PXR transcriptional activity, in words

Compound: CC(C)c1nc(N(C)S(C)(=O)=O)nc(-c2ccc(F)cc2)c1C=CC(O)CC(O)CC(=O)O (stereo not shown) [3S5S-rosuvastatin]
Readout value: U-shaped curve
//
Compound: CC(C)c1nc(N(C)S(C)(=O)=O)nc(-c2ccc(F)cc2)c1C=CC(O)CC(O)CC(=O)O (stereo not shown) [3R5R-rosuvastatin, 3R5R- rosuvastatin]
Readout value: U-shaped curve

----------
- Target of assay: UniProt:P04150
- Sequence (P04150 1-777): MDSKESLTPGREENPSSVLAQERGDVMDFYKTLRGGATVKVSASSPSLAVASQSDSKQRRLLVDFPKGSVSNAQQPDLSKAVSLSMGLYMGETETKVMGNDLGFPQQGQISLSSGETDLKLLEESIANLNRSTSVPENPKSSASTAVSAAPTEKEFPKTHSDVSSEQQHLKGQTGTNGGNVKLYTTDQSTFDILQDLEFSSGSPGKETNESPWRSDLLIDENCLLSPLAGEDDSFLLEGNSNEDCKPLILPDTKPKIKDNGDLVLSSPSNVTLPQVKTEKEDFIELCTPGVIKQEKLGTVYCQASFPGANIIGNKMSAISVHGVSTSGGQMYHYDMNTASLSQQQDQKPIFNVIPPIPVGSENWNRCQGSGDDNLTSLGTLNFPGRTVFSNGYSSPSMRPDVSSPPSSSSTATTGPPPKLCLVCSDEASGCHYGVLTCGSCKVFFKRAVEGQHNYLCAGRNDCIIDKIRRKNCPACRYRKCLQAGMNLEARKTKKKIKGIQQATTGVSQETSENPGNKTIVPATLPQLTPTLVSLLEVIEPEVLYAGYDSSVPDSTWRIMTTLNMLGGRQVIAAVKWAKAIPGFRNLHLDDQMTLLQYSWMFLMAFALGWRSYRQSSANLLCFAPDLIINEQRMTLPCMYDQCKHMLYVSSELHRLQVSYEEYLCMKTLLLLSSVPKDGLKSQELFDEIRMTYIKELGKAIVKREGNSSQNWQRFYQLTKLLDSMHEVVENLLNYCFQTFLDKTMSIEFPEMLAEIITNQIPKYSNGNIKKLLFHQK
- Procedure summary: GR gene reporter assay in AZ-GR cells
- Assay type: cell-based
- Measurement setup: antagonist mode, in presence of DEX 100 nM, 24 h
Measured parameter: IC50

Compound: CC(C)c1nc(N(C)S(C)(=O)=O)nc(-c2ccc(F)cc2)c1C=CC(O)CC(O)CC(=O)O (stereo not shown) [3R5R-rosuvastatin, 3R5R- rosuvastatin]
Readout value: > 100 µM
--
Compound: CC(C)c1nc(N(C)S(C)(=O)=O)nc(-c2ccc(F)cc2)c1C=CC(O)CC(O)CC(=O)O (stereo not shown) [3S5R-rosuvastatin, 3S5R- rosuvastatin]
Readout value: > 100 µM
--
Compound: CC(C)c1nc(N(C)S(C)(=O)=O)nc(-c2ccc(F)cc2)c1C=CC(O)CC(O)CC(=O)O (stereo not shown) [3S5S-rosuvastatin]
Readout value: > 100 µM

Now turn to the next compound.
Name the recorded IC50 of the compound listed here: CC(C)c1nc(N(C)S(C)(=O)=O)nc(-c2ccc(F)cc2)c1C=CC(O)CC(O)CC(=O)O (stereo not shown) [3R5S-rosuvastatin]
89.7 µM

----------
Below is a list of entries, each paired with its recorded pIC50 value.
- Target of assay: aryl hydrocarbon receptor (AhR) (Homo sapiens)
- Sequence (P35869 11-848): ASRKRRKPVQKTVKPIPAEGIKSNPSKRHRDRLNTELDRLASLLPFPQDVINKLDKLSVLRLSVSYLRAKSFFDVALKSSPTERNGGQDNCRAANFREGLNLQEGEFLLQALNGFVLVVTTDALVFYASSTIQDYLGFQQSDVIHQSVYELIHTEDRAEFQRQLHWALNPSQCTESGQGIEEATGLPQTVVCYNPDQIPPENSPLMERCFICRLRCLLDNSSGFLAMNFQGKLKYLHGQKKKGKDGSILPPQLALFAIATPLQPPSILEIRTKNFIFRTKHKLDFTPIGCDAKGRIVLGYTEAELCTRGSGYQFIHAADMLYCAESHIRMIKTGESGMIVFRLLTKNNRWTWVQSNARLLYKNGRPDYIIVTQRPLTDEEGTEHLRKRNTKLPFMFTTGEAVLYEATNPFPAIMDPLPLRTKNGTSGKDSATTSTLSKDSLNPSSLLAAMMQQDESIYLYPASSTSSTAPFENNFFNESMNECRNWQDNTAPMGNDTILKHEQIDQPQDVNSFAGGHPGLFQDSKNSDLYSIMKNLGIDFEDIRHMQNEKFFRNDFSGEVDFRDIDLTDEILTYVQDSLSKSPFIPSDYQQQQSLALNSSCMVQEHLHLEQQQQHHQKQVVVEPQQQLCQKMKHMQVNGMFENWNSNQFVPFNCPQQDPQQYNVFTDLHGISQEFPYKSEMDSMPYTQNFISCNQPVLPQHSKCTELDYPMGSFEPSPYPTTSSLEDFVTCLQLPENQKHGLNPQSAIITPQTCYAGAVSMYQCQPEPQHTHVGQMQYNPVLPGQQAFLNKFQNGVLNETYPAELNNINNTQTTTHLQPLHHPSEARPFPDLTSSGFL
- Procedure summary: AhR gene reporter assay in AZ-AHR cells
- Measurement setup: AhR antagonist IC50, antagonist mode, in presence of TCDD 5 nM, 24 h
pIC50: −log10 of the molar value.

Molecule: CC(C)c1nc(N(C)S(C)(=O)=O)nc(-c2ccc(F)cc2)c1C=CC(O)CC(O)CC(=O)O (stereo not drawn) [3R5R-rosuvastatin, 3R5R- rosuvastatin]
pIC50: < 4.00
--
Molecule: CC(C)c1nc(N(C)S(C)(=O)=O)nc(-c2ccc(F)cc2)c1C=CC(O)CC(O)CC(=O)O (stereo not drawn) [3S5S-rosuvastatin]
pIC50: < 4.00
--
Molecule: CC(C)n1c(C=CC(O)CC(O)CC(=O)O)c(-c2ccc(F)cc2)c2ccccc21 (stereo not drawn) [3S5R-fluvastatin, 3S5R- fluvastatin]
pIC50: < 4.00

Name the recorded pIC50 of the molecule listed here: CC(C)c1nc(N(C)S(C)(=O)=O)nc(-c2ccc(F)cc2)c1C=CC(O)CC(O)CC(=O)O (stereo not drawn) [3R5S-rosuvastatin]
4.27

Name the recorded pIC50 of the molecule listed here: CC(C)n1c(C=CC(O)CC(O)CC(=O)O)c(-c2ccc(F)cc2)c2ccccc21 (stereo not drawn) [3S5S-fluvastatin]
< 4.00

Name the recorded pIC50 of the molecule listed here: CC(C)c1nc(N(C)S(C)(=O)=O)nc(-c2ccc(F)cc2)c1C=CC(O)CC(O)CC(=O)O (stereo not drawn) [3S5R-rosuvastatin, 3S5R- rosuvastatin]
< 4.00

----------
- Procedure summary: MTT cytotoxicity test in LS180 cells
- Assay type: cell-based
- Measurement setup: human, LS180 colon adenocarcinoma cells
Measured parameter: IC50 at 24 h

Name the recorded IC50 at 24 h of the compound listed here: CC(C)c1nc(N(C)S(C)(=O)=O)nc(-c2ccc(F)cc2)c1C=CC(O)CC(O)CC(=O)O (stereo not drawn) [3R5R-rosuvastatin, 3R5R- rosuvastatin]
> 100 µM

Name the recorded IC50 at 24 h of the compound listed here: CC(C)n1c(C=CC(O)CC(O)CC(=O)O)c(-c2ccc(F)cc2)c2ccccc21 (stereo not drawn) [3S5S-fluvastatin]
> 100 µM

Name the recorded IC50 at 24 h of the compound listed here: CC(C)n1c(C=CC(O)CC(O)CC(=O)O)c(-c2ccc(F)cc2)c2ccccc21 (stereo not drawn) [3S5R-fluvastatin, 3S5R- fluvastatin]
> 100 µM

----------
- Target of assay: aryl hydrocarbon receptor (AhR) (Homo sapiens)
- Procedure summary: cell-based
Measured parameter: EC50 (µM)
Quick note: give the figure in µM, leave out the unit.

Compound: CC(C)n1c(C=CC(O)CC(O)CC(=O)O)c(-c2ccc(F)cc2)c2ccccc21 (stereo not drawn) [3S5S-fluvastatin]
Result units: µM
EC50: 14.7

Name the recorded EC50 of the compound listed here: CC(C)n1c(C=CC(O)CC(O)CC(=O)O)c(-c2ccc(F)cc2)c2ccccc21 (stereo not drawn) [3S5R-fluvastatin, 3S5R- fluvastatin]
14.4

Name the recorded EC50 of the compound listed here: CC(C)c1nc(N(C)S(C)(=O)=O)nc(-c2ccc(F)cc2)c1C=CC(O)CC(O)CC(=O)O (stereo not drawn) [3S5S-rosuvastatin]
17.5

----------
- Target of assay: glucocorticoid receptor (GR) (Homo sapiens)
- Procedure summary: GR gene reporter assay in AZ-GR cells
- Measurement setup: agonist mode, 24 h
pEC50: −log10 of the molar value.
Measured parameter: pEC50

Name the recorded pEC50 of the compound listed here: CC(C)c1nc(N(C)S(C)(=O)=O)nc(-c2ccc(F)cc2)c1C=CC(O)CC(O)CC(=O)O (stereo not shown) [3R5R-rosuvastatin, 3R5R- rosuvastatin]
< 4.00

Data provenance is paper PMC4569258.
